# system: FGF14:Nav1.6 C-tail complex (Homo sapiens, UniProt Q92915+Q9UQD0)
# Construct: polymerase chain reaction (PCR) amplification of the FGF14 open reading frame (nt 1–855); C-terminal fragment of Nav1.6 (amino acids 1763–1976) fused with CD4ΔC-tail (amino acids 1–395); expressed in transfected cells
# Sequence (Q92915 1-252 isoform Q92915-2): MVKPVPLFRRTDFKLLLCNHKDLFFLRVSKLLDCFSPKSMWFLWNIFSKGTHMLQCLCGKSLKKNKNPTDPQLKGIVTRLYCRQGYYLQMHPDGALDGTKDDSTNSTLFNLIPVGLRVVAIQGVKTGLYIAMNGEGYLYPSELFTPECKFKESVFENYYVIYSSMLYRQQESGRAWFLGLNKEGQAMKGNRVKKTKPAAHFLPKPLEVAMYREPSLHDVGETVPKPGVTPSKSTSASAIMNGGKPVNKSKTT
# Sequence (Q9UQD0 1763-1976 limits assumed): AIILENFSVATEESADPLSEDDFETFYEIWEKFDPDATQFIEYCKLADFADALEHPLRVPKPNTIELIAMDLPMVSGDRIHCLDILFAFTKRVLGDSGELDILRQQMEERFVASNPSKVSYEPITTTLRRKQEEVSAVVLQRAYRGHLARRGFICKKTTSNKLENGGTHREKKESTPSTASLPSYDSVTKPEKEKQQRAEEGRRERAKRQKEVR
# test: Split-luciferase complementation assay (LCA) in Clone V double stable HEK293 cells
# Assay type: cell-based
# test.parameters: CC_NCI screening; LCA luminescence, biological replicate Set 1; normalized to on-plate 0.3% DMSO controls (n=16 per plate)
Where a name gives a salt, the structure may show the parent alone.
Listed below: Split Luciferase Assay % Lum Set 1 values for each entry.
Provide a numeric answer, followed by its unit.

compound	Split Luciferase Assay % Lum Set 1
COc1nc(N)nc2c1ncn2[C@@H]1O[C@H](CO)[C@@H](O)[C@@H]1O	129.69%
CO[C@H]1C(=O)[C@]2(C)[C@@H](OC)C[C@H]3OC[C@@]3(OC(C)=O)[C@H]2[C@H](OC(=O)c2ccccc2)[C@]2(O)C[C@H](OC(=O)[C@H](O)[C@@H](NC(=O)OC(C)(C)C)c3ccccc3)C(C)=C1C2(C)C	101.43%
O=c1cc(-c2cccc3c2Sc2ccccc2S3)oc(N2CCOCC2)c1	69.90%
COc1cccc2c1C(=O)c1c(O)c3c(c(O)c1C2=O)C[C@@](O)(C(C)=O)C[C@@H]3O[C@H]1C[C@H](N)[C@H](O)[C@H](C)O1 [Daunorubicin hydrochloride]	48.16%
COc1cc2ncn(-c3cc(OCc4ccccc4C(F)(F)F)c(C(N)=O)s3)c2cc1OC [GW 843682X]	163.39%

-- ask Notebook entry, FGF14:Nav1.6 C-tail complex (Homo sapiens, UniProt Q92915+Q9UQD0) assay: Split Luciferase Assay % Lum Set 1 of C[C@]1(c2nc3c(C(N)=O)cccc3[nH]2)CCCN1 = ?
-- reply 75.34%

-- ask Notebook entry, FGF14:Nav1.6 C-tail complex (Homo sapiens, UniProt Q92915+Q9UQD0) assay: Split Luciferase Assay % Lum Set 1 of CCN(CC)CCNC(=O)c1c(C)[nH]c(/C=C2\C(=O)Nc3ccc(F)cc32)c1C [SUNITINIB] = ?
-- reply 80.77%

-- ask Notebook entry, FGF14:Nav1.6 C-tail complex (Homo sapiens, UniProt Q92915+Q9UQD0) assay: Split Luciferase Assay % Lum Set 1 of COc1ccc(Cl)cc1[C@]1(F)C(=O)Nc2cc(C(F)(F)F)ccc21 = ?
-- reply 10.11%

-- ask Notebook entry, FGF14:Nav1.6 C-tail complex (Homo sapiens, UniProt Q92915+Q9UQD0) assay: Split Luciferase Assay % Lum Set 1 of CO[C@@H]1[C@H](N(C)C(=O)c2ccccc2)C[C@H]2O[C@]1(C)n1c3ccccc3c3c4c(c5c6ccccc6n2c5c31)C(=O)NC4 = ?
-- reply 54.68%

-- ask Notebook entry, FGF14:Nav1.6 C-tail complex (Homo sapiens, UniProt Q92915+Q9UQD0) assay: Split Luciferase Assay % Lum Set 1 of COc1cc2c(Oc3ccc4[nH]c(C)cc4c3F)ncnc2cc1OCCCN1CCCC1 = ?
-- reply 69.90%

-- ask Notebook entry, FGF14:Nav1.6 C-tail complex (Homo sapiens, UniProt Q92915+Q9UQD0) assay: Split Luciferase Assay % Lum Set 1 of C[C@]12CC[C@H](O)CC1=CC[C@@H]1[C@@H]2CC[C@]2(C)C(c3cccnc3)=CC[C@@H]12 = ?
-- reply 115.56%

-- ask Notebook entry, FGF14:Nav1.6 C-tail complex (Homo sapiens, UniProt Q92915+Q9UQD0) assay: Split Luciferase Assay % Lum Set 1 of CNC(=O)c1cc(Oc2ccc(NC(=O)Nc3ccc(Cl)c(C(F)(F)F)c3)cc2)ccn1 [Sorafenib, reference compound] = ?
-- reply 5.76%

-- ask Notebook entry, FGF14:Nav1.6 C-tail complex (Homo sapiens, UniProt Q92915+Q9UQD0) assay: Split Luciferase Assay % Lum Set 1 of CNC(=O)c1cc(Oc2ccc(NC(=O)Nc3ccc(Cl)c(C(F)(F)F)c3)c(F)c2)ccn1 = ?
-- reply 43.81%

-- ask Notebook entry, FGF14:Nav1.6 C-tail complex (Homo sapiens, UniProt Q92915+Q9UQD0) assay: Split Luciferase Assay % Lum Set 1 of OCC1OC(O)CC(O)C1O (stereo not drawn) = ?
-- reply 104.69%

-- ask Notebook entry, FGF14:Nav1.6 C-tail complex (Homo sapiens, UniProt Q92915+Q9UQD0) assay: Split Luciferase Assay % Lum Set 1 of Cn1c(=O)n(-c2ccc(C(C)(C)C#N)cc2)c2c3cc(-c4cnc5ccccc5c4)ccc3ncc21 = ?
-- reply 91.64%

-- ask Notebook entry, FGF14:Nav1.6 C-tail complex (Homo sapiens, UniProt Q92915+Q9UQD0) assay: Split Luciferase Assay % Lum Set 1 of CN(N=O)C(=O)N[C@@H](C=O)[C@@H](O)[C@H](O)[C@H](O)CO = ?
-- reply 130.78%

-- ask Notebook entry, FGF14:Nav1.6 C-tail complex (Homo sapiens, UniProt Q92915+Q9UQD0) assay: Split Luciferase Assay % Lum Set 1 of COc1cc2ncnc(Nc3ccc(F)c(Cl)c3)c2cc1OCCCN1CCOCC1 = ?
-- reply 97.08%

-- ask Notebook entry, FGF14:Nav1.6 C-tail complex (Homo sapiens, UniProt Q92915+Q9UQD0) assay: Split Luciferase Assay % Lum Set 1 of C=CCNC1=C2C[C@@H](C)C[C@H](OC)[C@H](O)[C@@H](C)/C=C(\C)[C@H](OC(N)=O)[C@@H](OC)/C=C\C=C(/C)C(=O)NC(=CC1=O)C2=O = ?
-- reply 45.98%

-- ask Notebook entry, FGF14:Nav1.6 C-tail complex (Homo sapiens, UniProt Q92915+Q9UQD0) assay: Split Luciferase Assay % Lum Set 1 of CCN(CC)CCNC(=O)c1c(C)[nH]c(/C=C2\C(=O)Nc3ccc(F)cc32)c1C [Sunitinib] = ?
-- reply 68.81%

----------
# system: FGF14:Nav1.6 C-tail complex (Homo sapiens, UniProt Q92915+Q9UQD0)
# Construct: polymerase chain reaction (PCR) amplification of the FGF14 open reading frame (nt 1–855); C-terminal fragment of Nav1.6 (amino acids 1763–1976) fused with CD4ΔC-tail (amino acids 1–395); expressed in transfected cells
# test: Split-luciferase complementation assay (LCA) in Clone V double stable HEK293 cells
# Type: cell-based
# test.parameters: CC_NCI screening, biological replicate Set 2; normalized to on-plate 0.3% DMSO controls
Structures can show the parent of a compound that is named as a salt.
Listed below: Split Luciferase Assay Z-score Set 2 values for each entry.
Just the number, please, no unit after it.

compound	Split Luciferase Assay Z-score Set 2
Cc1cc(Nc2cc(N3CCN(C)CC3)nc(Sc3ccc(NC(=O)C4CC4)cc3)n2)[nH]n1 [TOZASERTIB]	-6.02
O=NN(CCCl)C(=O)NCCCl [Carmustine]	0.24
c1cc(-c2cnn3cc(-c4ccc(OCCN5CCCCC5)cc4)cnc23)ccn1 [COMPOUND C]	1.26
Oc1cccc(-c2nc(N3CCOCC3)c3oc4ncccc4c3n2)c1 [PI-103]	-0.43
CNNCc1ccc(C(=O)NC(C)C)cc1 [Procarbazine hydrochloride]	-0.26

-- ask Notebook entry, FGF14:Nav1.6 C-tail complex (Homo sapiens, UniProt Q92915+Q9UQD0) assay: Split Luciferase Assay Z-score Set 2 of O=C(CCCCCCC(=O)Nc1ccccc1)NO [VORINOSTAT] = ?
-- reply -1.96

-- ask Notebook entry, FGF14:Nav1.6 C-tail complex (Homo sapiens, UniProt Q92915+Q9UQD0) assay: Split Luciferase Assay Z-score Set 2 of Oc1c2ccccc2c2c3c(cccc13)N=N2 [SP600125] = ?
-- reply -1.20

-- ask Notebook entry, FGF14:Nav1.6 C-tail complex (Homo sapiens, UniProt Q92915+Q9UQD0) assay: Split Luciferase Assay Z-score Set 2 of NCC(=O)CCC(=O)O [Aminolevulinic acid hydrochloride] = ?
-- reply 0.75

-- ask Notebook entry, FGF14:Nav1.6 C-tail complex (Homo sapiens, UniProt Q92915+Q9UQD0) assay: Split Luciferase Assay Z-score Set 2 of C#Cc1cccc(Nc2ncnc3cc(OCCOC)c(OCCOC)cc23)c1 [ERLOTINIB] = ?
-- reply -1.53

-- ask Notebook entry, FGF14:Nav1.6 C-tail complex (Homo sapiens, UniProt Q92915+Q9UQD0) assay: Split Luciferase Assay Z-score Set 2 of N#Cc1c(O)c2c(-c3ccc(-c4ccccc4O)cc3)csc2[nH]c1=O [Compound A-769662] = ?
-- reply 1.01

-- ask Notebook entry, FGF14:Nav1.6 C-tail complex (Homo sapiens, UniProt Q92915+Q9UQD0) assay: Split Luciferase Assay Z-score Set 2 of CC(C)C[C@H](NC(=O)[C@H](CCc1ccccc1)NC(=O)CN1CCOCC1)C(=O)N[C@@H](Cc1ccccc1)C(=O)N[C@@H](CC(C)C)C(=O)[C@@]1(C)CO1 [Carfilzomib] = ?
-- reply -1.62

-- ask Notebook entry, FGF14:Nav1.6 C-tail complex (Homo sapiens, UniProt Q92915+Q9UQD0) assay: Split Luciferase Assay Z-score Set 2 of COc1ccc(OC)c2c(=S)c3ccccc3[nH]c12 [NSC 625987] = ?
-- reply -1.20

-- ask Notebook entry, FGF14:Nav1.6 C-tail complex (Homo sapiens, UniProt Q92915+Q9UQD0) assay: Split Luciferase Assay Z-score Set 2 of Nc1ccccc1NC(=O)c1ccc(CNC(=O)OCc2cccnc2)cc1 [MS-275] = ?
-- reply -2.38

-- ask Notebook entry, FGF14:Nav1.6 C-tail complex (Homo sapiens, UniProt Q92915+Q9UQD0) assay: Split Luciferase Assay Z-score Set 2 of Nc1ncnc2c1c(-c1cnc3[nH]ccc3c1)nn2C1CCCC1 [PP121, reference compound] = ?
-- reply -3.40

-- ask Notebook entry, FGF14:Nav1.6 C-tail complex (Homo sapiens, UniProt Q92915+Q9UQD0) assay: Split Luciferase Assay Z-score Set 2 of COc1cc2c(Nc3ccc(NC(=O)c4ccccc4)cc3)ncnc2cc1OCCCN1CCOCC1 [ZM447439] = ?
-- reply -1.70

-- ask Notebook entry, FGF14:Nav1.6 C-tail complex (Homo sapiens, UniProt Q92915+Q9UQD0) assay: Split Luciferase Assay Z-score Set 2 of CC[C@]1(O)C[C@@H]2CN(CCc3c([nH]c4ccccc34)[C@@](C(=O)OC)(c3cc4c(cc3OC)N(C)[C@H]3[C@@](O)(C(=O)OC)[C@H](OC(C)=O)[C@]5(CC)C=CCN6CC[C@]43[C@@H]65)C2)C1 [Vinblastine sulfate] = ?
-- reply 5.32

-- ask Notebook entry, FGF14:Nav1.6 C-tail complex (Homo sapiens, UniProt Q92915+Q9UQD0) assay: Split Luciferase Assay Z-score Set 2 of NS(=O)(=O)c1nn2cc(-c3ccccc3)nc2s1 [AEG 3482] = ?
-- reply 1.09
